Data origin: PubChem BioAssay (NCI)

TGI for assorted molecules
System: OVCAR-3 ovarian
ASSAY OVERVIEW: NCI tumour cell line growth inhibition, 48 h

Would you please look over these solved cases?
COc1cccc(C2c3cc4c(cc3OC(Nc3ccccc3)C2C)OCO4)c1O (stereo unspecified)    29.9 µM
O=C(N=Nc1ccccc1Cl)NNc1ccccc1Cl    95.3 µM
CC(C)c1cccc(C(C)C)c1N1C(=O)C(=O)C(c2nc3ccccc3o2)C(=O)C1=O    > 100 µM

For record `COc1ccc(-c2nc(-c3nc4ccc(C)cc4[nH]3)cc3c2[nH]c2ccccc23)cc1` the listed TGI is 12 µM

====

Tested on: MALME-3M melanoma
ASSAY OVERVIEW: NCI tumour cell line growth inhibition, 48 h
MEASURED QUANTITY: TGI (µM)
Hi! Could you send only the number? It should be in µM, unit omitted.

Would you please look over these solved cases?
COC1=CC(C2c3cc4c(cc3[C@@H](Nc3ccc(F)cc3)C3COC(=O)[C@H]23)OCO4)=CC(=O)C1=O (stereo not given in full)    36.6
CC1=C(C(=O)Nc2ccccc2)C(c2ccccc2Cl)C(C(=O)Nc2ccccc2)=C(C)N1    39.7

Kindly review the next compound as well.
For record `CCC[CH2][Sn]([CH2]CCC)([S]C#N)[S]C#N` the listed TGI is 2.27
